# ASSAY PROTOCOL: ATG_NFI_CIS: Attagene CIS-FACTORIAL HepG2 Assay for human Nuclear Factor I (NFI) (AID 2282989)
# TEST PARAMETERS: HepG2 cis-regulatory reporter, NFI response element transcription; actives raise or lower the signal
The source made the active and inactive calls. How the source made its calls: active means hit-call score of the fitted dose curve at least 0.9, where 1 is the maximum; inactive means score below 0.9.
Your response should consist of one outcome taken from 1.0 = active, 0.0 = inactive

MOLECULE: CC(=O)O[C@H](CC(=O)[O-])C[N+](C)(C)C
CATEGORY: 0.0

MOLECULE: Cc1ccc(S)cc1
CATEGORY: 0.0

MOLECULE: C=CCOc1nc(OCC=C)nc(OCC=C)n1
CATEGORY: 0.0

MOLECULE: O=C(Cl)c1cccc(C(=O)Cl)c1
CATEGORY: 0.0

MOLECULE: C=CC(C)(CCC=C(C)C)OC=O (stereo not drawn)
CATEGORY: 0.0

MOLECULE: CC(O)C(C)O (stereo not drawn)
CATEGORY: 0.0

MOLECULE: COc1ccnc(CS(=O)c2nc3cc(OC(F)F)ccc3[nH]2)c1OC (stereo not drawn)
CATEGORY: 0.0

MOLECULE: CCCCC[Si](OCC)(OCC)OCC
CATEGORY: 0.0

Consider the additional molecule presented here.
stdin: Write down the call the test reported for this molecule. Item: `Clc1ccc(Cl)c(Cl)c1Cl`
stdout: 0.0
